// reported Ratio Ki per item
- Species: Rattus norvegicus
- Test Protocol: Ratio of Ki for CRL:CD(SD)BR-COBS rat brain hippocampus 5HT1A to Ki for CRL:CD(SD)BR-COBS rat brain cortex alpha1-AR
- Type: tissue-based

Consider the following illustrative entries.
[
  {
    "Smiles Structure": "CC(C)(C)c1cc2[nH]c(=O)n(CCN3CCN(c4ccccc4Cl)CC3)c(=O)c2[nH]1",
    "Value Measured": 46.9
  },
  {
    "Smiles Structure": "O=c1[nH]c2[nH]c(-c3ccc(-c4ccccc4)cc3)cc2c(=O)n1CCN1CCN(c2ccccc2Cl)CC1",
    "Value Measured": "> 54.6"
  },
  {
    "Smiles Structure": "O=c1[nH]c2c(-c3ccc(Cl)cc3)c[nH]c2c(=O)n1CCN1CCN(c2ccccc2Cl)CC1",
    "Value Measured": "> 3500"
  }
]

Need Ratio Ki, item O=c1[nH]c2[nH]c(-c3ccc(OCc4ccccc4)cc3)cc2c(=O)n1CCN1CCN(c2ccccc2Cl)CC1
> 141

----------
- Species on record: Rattus norvegicus
- Test Protocol: Ratio of Ki for CRL:CD(SD)BR-COBS rat brain hippocampus 5HT1A to Ki for CRL:CD(SD)BR-COBS rat brain cortex alpha1-AR
- Assay type: tissue-based
Strictly below 30 in Ratio Ki: 1. Otherwise: 0.

Solved cases (4 shown):
[
  {
    "Smiles Structure": "O=c1[nH]c2cc(-c3ccc(Cl)cc3)[nH]c2c(=O)n1CCN1CCN(c2ccccc2Cl)CC1",
    "Group": 0
  },
  {
    "Smiles Structure": "O=c1[nH]c2[nH]c(-c3ccccc3)c(-c3ccccc3)c2c(=O)n1CCN1CCN(c2ccccc2Cl)CC1",
    "Group": 0
  },
  {
    "Smiles Structure": "COc1ccccc1N1CCN(CCn2c(=O)[nH]c3cc(C(C)(C)C)[nH]c3c2=O)CC1",
    "Group": 1
  },
  {
    "Smiles Structure": "O=c1[nH]c2cc(-c3ccco3)[nH]c2c(=O)n1CCN1CCN(c2ccccc2Cl)CC1",
    "Group": 1
  }
]

Bench note: check whether O=c1c2cc(-c3ccccc3)[nH]c2n(Cc2ccccc2)c(=O)n1CCN1CCN(c2ccccc2Cl)CC1 shows Ratio Ki below 30
1

Bench note: check whether COc1ccccc1N1CCN(CCn2c(=O)[nH]c3c(-c4ccc(Cl)cc4)c[nH]c3c2=O)CC1 shows Ratio Ki below 30
1

Bench note: check whether COc1ccccc1N1CCN(CCn2c(=O)[nH]c3[nH]c(-c4ccc(Oc5ccccc5)cc4)cc3c2=O)CC1 shows Ratio Ki below 30
1

----------
- Assayed System: Adrenergic receptor alpha-1 (Rattus norvegicus, UniProt P15823+P23944+P43140)
- Test Protocol: Displacement of [3H]prazosin from alpha1-ARs in CRL:CD(SD)BR-COBS rat brain cortex after 30 mins by liquid scintillation spectrometry
// reported Ki per item
Please respond with the number in nM and leave the unit unwritten.

Consider the following illustrative entries.
[
  {
    "Smiles Structure": "O=c1[nH]c2cc(-c3ccco3)[nH]c2c(=O)n1CCN1CCN(c2ccccc2Cl)CC1",
    "Ki / nM": 14.17
  },
  {
    "Smiles Structure": "COc1ccc(-c2cc3c(=O)n(CCN4CCN(c5ccccc5Cl)CC4)c(=O)n(Cc4ccccc4OC)c3[nH]2)cc1",
    "Ki / nM": 89.2
  },
  {
    "Smiles Structure": "COc1ccccc1N1CCN(CCn2c(=O)[nH]c3c(-c4ccc(Cl)cc4)c[nH]c3c2=O)CC1",
    "Ki / nM": 3.36
  },
  {
    "Smiles Structure": "COc1ccccc1N1CCN(CCn2c(=O)c3cc(-c4ccccc4)[nH]c3n(Cc3ccccc3)c2=O)CC1",
    "Ki / nM": 24.5
  }
]

Need Ki, item O=c1[nH]c2[nH]c(-c3ccc(Cl)cc3)cc2c(=O)n1CCN1CCN(c2ccccc2Cl)CC1
2.64

Need Ki, item O=c1[nH]c2c(-c3ccc(Cl)cc3)c[nH]c2c(=O)n1CCN1CCN(c2ccccc2Cl)CC1
2.71

Need Ki, item O=c1[nH]c2[nH]c(-c3ccc(Oc4ccccc4)cc3)cc2c(=O)n1CCN1CCN(c2ccccc2Cl)CC1
125

Need Ki, item O=c1[nH]c2[nH]c(-c3ccc(-c4ccccc4)cc3)cc2c(=O)n1CCN1CCN(c2ccccc2Cl)CC1
183
